Target: UniProt O00311
Sequence (O00311 whole entry): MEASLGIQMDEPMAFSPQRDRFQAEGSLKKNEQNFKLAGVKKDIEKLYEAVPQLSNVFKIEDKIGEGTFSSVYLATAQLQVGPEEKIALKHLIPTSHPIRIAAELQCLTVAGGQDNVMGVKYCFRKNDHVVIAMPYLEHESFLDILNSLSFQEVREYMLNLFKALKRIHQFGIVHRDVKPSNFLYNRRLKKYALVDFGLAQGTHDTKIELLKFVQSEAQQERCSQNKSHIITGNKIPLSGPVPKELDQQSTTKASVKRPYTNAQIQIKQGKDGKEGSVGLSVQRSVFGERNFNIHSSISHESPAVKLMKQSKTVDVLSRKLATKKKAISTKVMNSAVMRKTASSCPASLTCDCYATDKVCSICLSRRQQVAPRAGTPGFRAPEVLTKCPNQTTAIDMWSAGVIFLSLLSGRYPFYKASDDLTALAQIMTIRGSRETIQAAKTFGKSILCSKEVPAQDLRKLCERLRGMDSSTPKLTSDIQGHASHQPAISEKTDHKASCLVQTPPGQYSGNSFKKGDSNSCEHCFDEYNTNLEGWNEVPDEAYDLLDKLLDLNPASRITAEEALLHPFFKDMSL
quantity.measured: IC50 (nM)
Please state the figure in nM; there is no need to write the unit.

Task item: Requested field: IC50. Item: `Clc1ccnc2[nH]c(-c3ccc(N4CCNCC4)cc3)cc12`
Reply: 40

Numbers sourced from ChEMBL document CHEMBL4043256.
